In this section, each of the molecules is paired with its reported melting point.

Sample answers from the record:
Sc1ncc(-c2ccc(Cl)cc2)[nH]1 = 308 °C
N#Cc1cnc2cc(/C=C/CCCCN3CCOCC3)ccc2c1Nc1ccc(Cl)cc1Cl = 139 to 140 °C
ClCc1cccc(OCc2ccc3ccccc3n2)c1 = 39 to 43 °C

Input: Quick check: melting point of Nc1c(Cl)cc(C(O)CNCCCCCOCCc2ccc(F)cc2)cc1Cl (stereo unspecified) ?
Output: 75 to 76 °C

Input: Quick check: melting point of CCN(CC)C(=O)Cc1nn(-c2ccccc2)c(=O)c2c1c1ccc(Cl)cc1n2C ?
Output: 167 to 168 °C
